- Tested on: R848-induced IL-6 secretion in human peripheral blood mononuclear cells (PBMCs)
- experiment-description: Inhibition of R848-induced IL-6 secretion in human PBMCs (IL-6 ELISA)
- Assay type: cell-based
- particulars: PBMC, R848 2.5 μg/mL, 20 h pre-incubation, 24 h stimulation
- Experimental: This experiment was carried out in RPMI 1640 medium containing 10% FBS and 1% penicillin/streptomycin, with each of the compounds at an initial test concentration of 1 μM. […] PBMCs (Batch No.: P122101102C; Milecell Biotechnology Inc.) were counted and diluted to a cell concentration of 1.25×10^6 cells/mL, and then added to the aforementioned compound-containing 96-well plate at 160 μL per well. […] The supernatant was collected and diluted 120-fold, then detected using an IL-6 ELISA kit. […]
experimental-readout: pIC50
Give bare numbers, as −log10 of the molar value.

Known pIC50 results, listed for orientation:
molecule: CN(C)c1cc2nn([C@H]3CC[C@H](CN4C[C@@H](F)[C@H](n5cc6cc(C7CCC(=O)NC7=O)ccc6n5)C4)CC3)cc2cc1NC(=O)c1cnn2cccnc12 (some centres unmarked)
system-tested: R848-induced IL-6 secretion in human peripheral blood mononuclear cells (PBMCs)
data-value: 7.84
--
molecule: CN(C)c1cc2nn(C3CCC(CN4C[C@@H](F)[C@H](n5cc6cc(N7CCC(=O)NC7=O)ccc6n5)C4)CC3)cc2cc1NC(=O)c1cnn2cccnc12 (some centres unmarked)
system-tested: R848-induced IL-6 secretion in human peripheral blood mononuclear cells (PBMCs)
data-value: 7.97
--
molecule: CN(C)c1cc2nn([C@H]3CC[C@H](CN4C[C@H](F)[C@@H](n5cc6c(F)cc(N7CCC(=O)NC7=O)cc6n5)C4)CC3)cc2cc1NC(=O)c1cnn2cccnc12
system-tested: R848-induced IL-6 secretion in human peripheral blood mononuclear cells (PBMCs)
data-value: 8.09
--
molecule: CN(C)c1cc2nn([C@H]3CC[C@H](CN4CC[C@@H](n5cc6cc(C7CCC(=O)NC7=O)c(F)cc6n5)[C@@H](F)C4)CC3)cc2cc1NC(=O)c1cnn2cccnc12 (some centres unmarked)
system-tested: R848-induced IL-6 secretion in human peripheral blood mononuclear cells (PBMCs)
data-value: 8.34
--
molecule: CN(C)c1cc2nc([C@H]3CC[C@H](CN4CCC(n5cc6c(F)cc(N7CCC(=O)NC7=O)cc6n5)CC4)CC3)cn2cc1NC(=O)c1cnn2cccnc12
system-tested: R848-induced IL-6 secretion in human peripheral blood mononuclear cells (PBMCs)
data-value: 7.94
--
molecule: CN(C)c1cc2nn([C@H]3CC[C@H](CN4CCC(n5cc6c(F)cc(C7CCC(=O)NC7=O)cc6n5)CC4)CC3)cc2cc1NC(=O)c1cnn2cccnc12 (some centres unmarked)
system-tested: R848-induced IL-6 secretion in human peripheral blood mononuclear cells (PBMCs)
data-value: 8.48
--
molecule: CN(C)c1cc2nn([C@H]3CC[C@H](CN4CCC(n5cc6cc(NC7CCC(=O)NC7=O)ccc6n5)CC4)CC3)cc2cc1NC(=O)c1cnn2cccnc12 (some centres unmarked)
system-tested: R848-induced IL-6 secretion in human peripheral blood mononuclear cells (PBMCs)
data-value: 8.53

--- query ---
Sure, the documented pIC50 for CN(C)c1cc2nn([C@@H]3CC[C@@H](CN4CC[C@@H](n5cc6c(F)cc(N7CCC(=O)NC7=O)cc6n5)C4)OC3)cc2cc1NC(=O)c1cnn2cccnc12 is 7.91

Entry source: patent US20260216348A1
